This section presents binders with their documented Activity, fold drop compared to relaxin values.
# study-target: T1, LGR7 (relaxin 2 receptor), recombinant, stably expressed in HEK293T cells with a CRE-Luc reporter (UniProt Q9HBX9 1-757, limits assumed)
# T1 sequence (looked up): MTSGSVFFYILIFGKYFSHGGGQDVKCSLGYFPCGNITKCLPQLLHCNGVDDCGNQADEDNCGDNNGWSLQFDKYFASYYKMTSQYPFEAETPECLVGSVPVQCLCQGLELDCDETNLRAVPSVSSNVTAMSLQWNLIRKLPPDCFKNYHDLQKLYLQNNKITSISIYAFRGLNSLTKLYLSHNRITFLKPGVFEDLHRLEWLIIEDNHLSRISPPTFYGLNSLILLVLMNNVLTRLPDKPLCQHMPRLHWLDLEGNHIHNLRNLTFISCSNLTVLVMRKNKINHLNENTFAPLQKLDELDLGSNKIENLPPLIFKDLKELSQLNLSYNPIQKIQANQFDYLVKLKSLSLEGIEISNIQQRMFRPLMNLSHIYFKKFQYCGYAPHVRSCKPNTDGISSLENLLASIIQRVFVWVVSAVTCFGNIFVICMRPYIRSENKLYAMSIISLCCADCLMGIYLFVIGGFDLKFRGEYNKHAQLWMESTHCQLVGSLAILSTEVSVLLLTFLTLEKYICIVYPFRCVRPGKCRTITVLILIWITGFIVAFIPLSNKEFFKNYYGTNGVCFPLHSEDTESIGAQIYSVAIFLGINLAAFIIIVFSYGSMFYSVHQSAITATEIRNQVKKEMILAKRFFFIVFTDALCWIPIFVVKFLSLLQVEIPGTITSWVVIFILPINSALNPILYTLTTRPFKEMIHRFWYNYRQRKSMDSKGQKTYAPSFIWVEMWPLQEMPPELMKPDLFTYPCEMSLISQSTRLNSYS
# protocol-details: cell-based or functional assay
Primed or numbered codes have the meaning given here. No end group written: not given here. FA2″ = lipid moiety from Br-FA2: acetamide, two PEG2-propionic acid units, Lys and octadecanedioic acid; FA183 = acetamide-PEG5-Lys-octadecanedioic acid; FA155 = not defined here; FA2 = not defined here
quantity-measured: Activity, fold drop compared to relaxin (fold)

[[record]]
binder = "Relaxin-B:D1A-A:Q1-L2C-FA2 (ligand, ends and bridges not checked) chain 1: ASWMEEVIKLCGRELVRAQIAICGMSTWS chain 2: QC(FA2″)YSALANKCCHVGCTKRSLARFC"
measured_number = 12

[[record]]
binder = "Relaxin-B:D1A-A:Q1:V13C-FA2 (ligand, ends and bridges not checked) chain 1: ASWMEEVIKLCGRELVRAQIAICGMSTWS chain 2: QLYSALANKCCHC(FA2)GCTKRSLARFC"
measured_number = 15

[[record]]
binder = "Relaxin-B:D1A-A:Q1-L2C-FA183 (ligand, ends and bridges not checked) chain 1: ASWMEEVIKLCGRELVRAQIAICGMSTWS chain 2: QC(FA183)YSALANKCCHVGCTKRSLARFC"
measured_number = 8

[[record]]
binder = "Relaxin-B:D1A-A:Q1-L2C-FA155 (ligand, ends and bridges not checked) chain 1: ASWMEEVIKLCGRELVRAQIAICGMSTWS chain 2: QC(FA155)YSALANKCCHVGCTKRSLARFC"
measured_number = 12

[[record]]
binder = "Relaxin-wt (ligand, ends and bridges not checked; cysteine pairing not given here) chain 1: DSWMEEVIKLCGRELVRAQIAICGMSTWS chain 2: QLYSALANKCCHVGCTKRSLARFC"
measured_number = 1

[[record]]
binder = "Relaxin-B:D1A-A:pQ1-L2C-FA2 (ligand, pyroglutamate (pQ) at position 1; Cys 2 S-alkylated with FA2 (from Br-FA2, Example 6)) chain 1: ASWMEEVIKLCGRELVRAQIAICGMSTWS chain 2: XCYSALANKCCHVGCTKRSLARFC"
measured_number = 12

